Taken from ChEMBL document CHEMBL3244335.

Exercise: state measured Kb for each of the compounds provided.
# target of assay: UniProtKB P25102
# Sequence (P25102 whole entry): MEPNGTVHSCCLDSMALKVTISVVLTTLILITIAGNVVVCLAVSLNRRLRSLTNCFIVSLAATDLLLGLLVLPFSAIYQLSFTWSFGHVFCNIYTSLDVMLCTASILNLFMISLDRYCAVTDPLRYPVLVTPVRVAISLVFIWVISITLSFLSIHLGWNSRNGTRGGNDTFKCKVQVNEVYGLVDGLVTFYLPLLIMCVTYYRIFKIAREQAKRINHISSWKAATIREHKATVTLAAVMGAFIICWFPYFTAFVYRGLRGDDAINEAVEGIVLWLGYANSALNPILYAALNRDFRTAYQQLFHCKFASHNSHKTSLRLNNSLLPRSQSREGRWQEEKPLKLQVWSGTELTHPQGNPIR
# experiment description: Antagonist at histamine H2 receptor in rat uterus assessed as inhibition of histamine-induced response
# Assay type: tissue-based
Write the answer as a number in µM, unit excluded.

Note down Kb recorded for "CNC(=S)NCCSCc1[nH]cnc1C"
0.75

Note down Kb recorded for "CN/C(=N\C(N)=O)NCCSCc1nc[nH]c1C"
6.9

Note down Kb recorded for "CN/C(=N/C#N)NCCCCc1nc[nH]c1C"
4.9

Note down Kb recorded for "CNC(=S)NCCSCc1c[nH]cn1"
3.2

Note down Kb recorded for "C/N=C(/NCCSCc1[nH]cnc1C)N[N+](=O)[O-]"
1.4

Note down Kb recorded for "CN/C(=N\C#N)NCCCCc1c[nH]cn1"
7.1

Note down Kb recorded for "CNC(=O)NCCSCc1[nH]cnc1C"
7.1

###

# experiment description: Ionization constant, pKa of the imidazole ring of the compound
# Format: physicochemical
measured metric: pKa
I only need the number, thanks.

Note down pKa recorded for C/N=C(\S)NCCSCc1[nH]cnc1C [METIAMIDE]
6.8

###

# experiment description: Octanol-water partition coefficient, log P of the compound at pH 9.2
# Assay type: physicochemical
# measurement conditions: read-out: logP (converted)
measured metric: logP
I only need the number, thanks.

Note down logP recorded for C/N=C(\S)NCCSCc1[nH]cnc1C [METIAMIDE]
0.505

###

# target of assay: UniProt P47747
# Sequence (P47747 whole entry): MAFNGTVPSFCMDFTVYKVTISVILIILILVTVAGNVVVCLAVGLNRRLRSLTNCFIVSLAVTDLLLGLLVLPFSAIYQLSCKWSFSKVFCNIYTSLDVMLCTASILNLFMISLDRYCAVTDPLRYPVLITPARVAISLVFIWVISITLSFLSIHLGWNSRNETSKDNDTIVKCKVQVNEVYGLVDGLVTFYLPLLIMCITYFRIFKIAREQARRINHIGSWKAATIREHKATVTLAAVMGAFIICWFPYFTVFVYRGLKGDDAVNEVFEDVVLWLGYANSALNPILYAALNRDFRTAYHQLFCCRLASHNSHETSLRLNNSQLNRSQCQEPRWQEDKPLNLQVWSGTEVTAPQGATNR
# experiment description: Antagonist at histamine H2 receptor in guinea pig atrium assessed as inhibition of histamine-induced response
# measurement conditions: Cardiac atrium
Label 1.0 when Kb is strictly below 8 µM; otherwise label 0.0.

A record lists "CNC(=S)NCCCCc1nc[nH]c1C" . Is its Kb below 8 µM?
0.0

A record lists "CN/C(=N\C#N)NCCCCc1c[nH]cn1" . Is its Kb below 8 µM?
0.0

A record lists "CNC(=O)NCCSCc1[nH]cnc1C" . Is its Kb below 8 µM?
0.0

A record lists "CNC(=S)NCCSCc1c[nH]cn1" . Is its Kb below 8 µM?
1.0

A record lists "CNC(=S)NCCSCc1[nH]cnc1C" . Is its Kb below 8 µM?
1.0

A record lists "CNC(=N)NCCSCc1nc[nH]c1C" . Is its Kb below 8 µM?
0.0

A record lists "C/N=C(/NCCSCc1[nH]cnc1C)N[N+](=O)[O-]" . Is its Kb below 8 µM?
1.0

A record lists "CN/C(=N\C(N)=O)NCCSCc1nc[nH]c1C" . Is its Kb below 8 µM?
1.0

A record lists "CN/C(=N\C#N)NCCSCc1c[nH]cn1" . Is its Kb below 8 µM?
1.0

###

# experiment description: Octanol-water partition coefficient, log P of the compound at 37 degC
# Format: physicochemical
Exercise: state measured logP for each of the compounds provided.
I only need the number, thanks.

Note down logP recorded for "CNC(=S)NC"
-0.237

Note down logP recorded for "N#CNC(=N)N"
-1.16

Note down logP recorded for "CNC(=NC#N)NC"
-0.398
